# EXPERIMENTAL TARGET: UniProt Q9NYK1
# Sequence (Q9NYK1 27-1049): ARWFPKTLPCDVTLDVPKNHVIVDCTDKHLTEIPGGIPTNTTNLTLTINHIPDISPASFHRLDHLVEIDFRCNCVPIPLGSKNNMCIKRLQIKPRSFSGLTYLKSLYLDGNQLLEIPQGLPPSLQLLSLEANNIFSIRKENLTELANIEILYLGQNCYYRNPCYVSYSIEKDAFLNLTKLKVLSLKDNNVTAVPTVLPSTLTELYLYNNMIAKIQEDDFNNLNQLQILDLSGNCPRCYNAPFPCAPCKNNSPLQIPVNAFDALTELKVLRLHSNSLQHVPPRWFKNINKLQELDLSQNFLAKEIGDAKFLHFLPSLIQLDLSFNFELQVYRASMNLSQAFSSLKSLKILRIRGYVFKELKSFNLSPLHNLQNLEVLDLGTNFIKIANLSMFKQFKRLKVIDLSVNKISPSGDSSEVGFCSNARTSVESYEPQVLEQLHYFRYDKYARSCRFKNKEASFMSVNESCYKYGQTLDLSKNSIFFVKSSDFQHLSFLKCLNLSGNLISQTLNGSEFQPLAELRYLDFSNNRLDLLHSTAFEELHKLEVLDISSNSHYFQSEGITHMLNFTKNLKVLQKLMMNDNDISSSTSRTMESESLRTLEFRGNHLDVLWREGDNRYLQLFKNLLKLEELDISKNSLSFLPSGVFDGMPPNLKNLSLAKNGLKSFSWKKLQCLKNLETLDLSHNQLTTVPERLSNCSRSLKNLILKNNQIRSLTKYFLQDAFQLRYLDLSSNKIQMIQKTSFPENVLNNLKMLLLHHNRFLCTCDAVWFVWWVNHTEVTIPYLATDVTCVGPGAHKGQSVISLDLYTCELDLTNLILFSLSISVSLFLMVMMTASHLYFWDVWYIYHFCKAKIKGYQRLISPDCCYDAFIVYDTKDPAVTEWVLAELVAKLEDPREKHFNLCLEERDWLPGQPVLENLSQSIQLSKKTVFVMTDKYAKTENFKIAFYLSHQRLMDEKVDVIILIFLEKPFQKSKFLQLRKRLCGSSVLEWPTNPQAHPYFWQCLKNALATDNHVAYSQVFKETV
# PROTOCOL TEXT: TLR7 inhibition reporter assay (HEK-Blue cells, SEAP reporter, gardiquimod stimulation)
# CONDITION DESCRIPTION: HEK-Blue cells overexpressing human TLR7, SEAP reporter, gardiquimod 7.5 μM
pIC50: −log10 of the molar value.
READOUT NAME: pIC50

Previously resolved entries follow.
{"STRUCTURE SMILES": "Cc1cc(-c2[nH]c3ccc(C4CCN(CC(=O)N(C)C)CC4)cc3c2C(C)C)cc2cncn12", "EXPERIMENTAL TARGET": "UniProt Q9NYK1", "OBSERVED MEASUREMENT": "> 7.00"}
{"STRUCTURE SMILES": "Cc1cc2nccn2cc1-c1[nH]c2ccc(C3CCNCC3)cc2c1C(C)C", "EXPERIMENTAL TARGET": "UniProt Q9NYK1", "OBSERVED MEASUREMENT": "> 7.00"}
{"STRUCTURE SMILES": "Cc1cc(-c2[nH]c3ccc(C4CCN(C(=O)CN(C)C)CC4)cc3c2C(C)C)cc2ncnn12", "EXPERIMENTAL TARGET": "UniProt Q9NYK1", "OBSERVED MEASUREMENT": "> 7.00"}
{"STRUCTURE SMILES": "Cc1cn2c(C)cc(-c3[nH]c4ccc(C5CCN(C(=O)CN(C)C)CC5)cc4c3C(C)C)cc2n1", "EXPERIMENTAL TARGET": "UniProt Q9NYK1", "OBSERVED MEASUREMENT": "6.00 to 7.00"}

// switching to the query molecule
Measured pIC50, CC(C)c1c(-c2ccc3cncn3c2)[nH]c2ccc(C3CCNCC3)cc12 : 6.00 to 7.00

The values you see were collected from patent US11739098B2.
